Origin of the recorded values: ChEMBL document CHEMBL1137227

Target: UniProtKB P11474
Experiment: Inhibition of estrogen-related receptor alpha Gal4 activity
readout: pIC50
A value of pIC50 is the negative decimal logarithm of a concentration given in moles per litre.

Qu. Supply pIC50 value. Item: CCC1=NN2C/C(=C/c3ccc(OCCOc4c(C)cccc4C)c(OC)c3)C(=O)N=C2S1
Ans. 5.64

====

Target: Steroid hormone receptor ERR1 (Homo sapiens) (UniProt P11474)
Sequence (P11474 whole entry, the tested form may be a part): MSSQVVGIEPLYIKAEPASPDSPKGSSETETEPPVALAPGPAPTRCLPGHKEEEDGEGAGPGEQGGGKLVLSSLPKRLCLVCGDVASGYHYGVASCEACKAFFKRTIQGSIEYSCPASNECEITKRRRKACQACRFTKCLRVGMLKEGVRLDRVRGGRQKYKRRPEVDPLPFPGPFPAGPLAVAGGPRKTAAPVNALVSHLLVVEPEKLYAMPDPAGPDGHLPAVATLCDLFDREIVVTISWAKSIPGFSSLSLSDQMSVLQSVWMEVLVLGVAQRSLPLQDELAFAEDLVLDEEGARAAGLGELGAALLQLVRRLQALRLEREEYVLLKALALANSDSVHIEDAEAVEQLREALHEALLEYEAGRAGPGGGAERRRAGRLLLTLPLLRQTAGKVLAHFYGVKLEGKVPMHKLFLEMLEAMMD
Assay: Percent inhibition of estrogen-related receptor alpha Gal4 activity at 10 uM
readout: inhibition (%)
Numeric only. Scale: %

Use these answered entries as a reference point.
COc1cc(/C=C(\C#N)C(=O)Nc2nncs2)ccc1OCc1ccc(C(F)(F)F)cc1C(F)(F)F: 99
COc1cc(/C=C(\C#N)C(=O)Nc2nnc(-c3ccc(N(C)C)cc3)s2)ccc1OCCOc1c(C)cccc1C: 74
COc1cc(/C=C(\C#N)C(=O)Nc2nnc(-c3ccccc3)s2)ccc1OCc1ccc(C(F)(F)F)cc1C(F)(F)F: 105
COc1cc(/C=C(\C#N)C(=O)Nc2nnc(C(C)(C)C)s2)ccc1OCc1ccc(C(F)(F)F)cc1C(F)(F)F: 43
COc1cc(/C=C(\C#N)C(=O)Nc2nnc(C(F)(F)F)s2)ccc1OCc1ccc(C(F)(F)F)cc1C(F)(F)F: 109
COc1cc(/C=C(\C#N)C(=O)Nc2nnc(SC)s2)ccc1OCCOc1c(C)cccc1C: 92
COc1cc(/C=C(\C#N)C(=O)Nc2nncs2)ccc1OCCOc1c(C)cccc1C: 103

Qu. Supply inhibition value. Item: COc1cc(/C=C(\C#N)C(=O)Nc2nnc(C(F)(F)F)s2)ccc1OCCOc1c(C)cccc1C
Ans. 112
